# study_target: Fyn (UniProt P06241)
# Sequence (P06241 whole entry, looked up): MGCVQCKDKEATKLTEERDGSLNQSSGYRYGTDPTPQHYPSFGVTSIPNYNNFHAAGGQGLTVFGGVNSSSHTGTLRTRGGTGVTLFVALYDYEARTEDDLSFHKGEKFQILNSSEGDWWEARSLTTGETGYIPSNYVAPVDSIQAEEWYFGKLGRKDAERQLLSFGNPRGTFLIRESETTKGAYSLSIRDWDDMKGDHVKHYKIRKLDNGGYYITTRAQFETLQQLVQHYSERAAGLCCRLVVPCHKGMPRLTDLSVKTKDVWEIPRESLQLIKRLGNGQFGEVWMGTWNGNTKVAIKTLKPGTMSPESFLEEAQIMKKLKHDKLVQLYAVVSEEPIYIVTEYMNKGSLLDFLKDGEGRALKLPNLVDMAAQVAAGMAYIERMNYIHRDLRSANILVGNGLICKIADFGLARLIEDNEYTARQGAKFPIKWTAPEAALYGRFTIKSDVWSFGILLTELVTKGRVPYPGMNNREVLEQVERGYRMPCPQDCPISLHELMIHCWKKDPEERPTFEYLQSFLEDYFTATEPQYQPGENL
# measurement_protocol: phosphorylation enrichment, bacterial display (enrichment ratio); higher = better substrate or ligand; peptides without Tyr show the background
Threshold rule: phosphorylation enrichment greater than or equal to 0.5 is y; below that, n.

[
  {
    "sequence_code": "SGPRRYTIAAL [TTR_Y125]",
    "qualitative_label": "n"
  },
  {
    "sequence_code": "IGEGTYRQVYK [CDK13_Y716_G717R]",
    "qualitative_label": "n"
  },
  {
    "sequence_code": "GINDDYGQLKN [NBN_Y679]",
    "qualitative_label": "y"
  },
  {
    "sequence_code": "CKLYQYYLDHL [ATRX_Y1849]",
    "qualitative_label": "y"
  },
  {
    "sequence_code": "RKQQLYTAMEE [CCDC39_Y593]",
    "qualitative_label": "y"
  },
  {
    "sequence_code": "FVHDNYVIQRT [CPS1_Y1450_R1453Q]",
    "qualitative_label": "n"
  },
  {
    "sequence_code": "EDKSIYRRGAR [PRKCI_Y125]",
    "qualitative_label": "n"
  },
  {
    "sequence_code": "YYLGKYLQEVL [KLB_Y910]",
    "qualitative_label": "y"
  },
  {
    "sequence_code": "LSSVSYVGCSL [ADGRD1_Y571_I569V]",
    "qualitative_label": "y"
  },
  {
    "sequence_code": "RQSTLYSFFPK [MSH6_Y8]",
    "qualitative_label": "y"
  },
  {
    "sequence_code": "LLKNMYLMLDN [STAT1_Y203_K201N]",
    "qualitative_label": "y"
  },
  {
    "sequence_code": "PEADKYHLTYA [FGG_Y300_R301H]",
    "qualitative_label": "y"
  },
  {
    "sequence_code": "VNFGAYINDFN [GLB1_Y488_K493N_YF]",
    "qualitative_label": "n"
  }
]

---

# study_target: c-Src SH2;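 also: peptide library displayed on the E. coli surface as eCPX fusions, selected cells deep-sequenced, score is each peptide's frequency after selection divided by its frequency in the input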
# measurement_protocol: SH2 binding enrichment of the phosphorylated peptide, bacterial display (enrichment ratio); higher = better substrate or ligand; peptides without Tyr show the background
Threshold rule: SH2 binding enrichment greater than or equal to 0.6 is satisfied; below that, not satisfied.

[
  {
    "sequence_code": "PKGWNYELPAT [PROM1_Y34_A31G]",
    "qualitative_label": "satisfied"
  },
  {
    "sequence_code": "LLASGYDSPIN [ABLIM1_Y638_R637G]",
    "qualitative_label": "satisfied"
  },
  {
    "sequence_code": "PAEPRYRARQR [KCNJ11_Y26]",
    "qualitative_label": "not satisfied"
  },
  {
    "sequence_code": "ARRHPYFYAPE [ALB_Y172]",
    "qualitative_label": "not satisfied"
  },
  {
    "sequence_code": "LIHTKCPQLLP [AHCY_Y143_Y143C]",
    "qualitative_label": "satisfied"
  },
  {
    "sequence_code": "YSNKLYYQLEQ [PDPR_Y109]",
    "qualitative_label": "satisfied"
  },
  {
    "sequence_code": "NDQANYSLNTD [ADA_Y290]",
    "qualitative_label": "not satisfied"
  },
  {
    "sequence_code": "AVISVYDLVVV [PSEN1_Y256_A260V]",
    "qualitative_label": "satisfied"
  },
  {
    "sequence_code": "ASTDFYKRGDF [PDHA1_Y243_YF]",
    "qualitative_label": "not satisfied"
  },
  {
    "sequence_code": "SETDDYAEIIV [PTK2_Y397_D402V]",
    "qualitative_label": "satisfied"
  },
  {
    "sequence_code": "EFFDGYWEFSV [ITGA2B_Y265_G267E_YF]",
    "qualitative_label": "not satisfied"
  },
  {
    "sequence_code": "KDLPNYNWNSF [KISS1_Y112]",
    "qualitative_label": "not satisfied"
  }
]
